molecular target: bovine brain tubulin (Bos taurus, UniProt P81947+Q6B856); assay: Inhibition of tubulin assembly (turbidimetry); conditions: 9 μM (0.9 mg/mL) tubulin, 20 min at 30 °C; read-out: inhibition of tubulin assembly IC50 ± SD
Sequence (Q6B856 whole entry): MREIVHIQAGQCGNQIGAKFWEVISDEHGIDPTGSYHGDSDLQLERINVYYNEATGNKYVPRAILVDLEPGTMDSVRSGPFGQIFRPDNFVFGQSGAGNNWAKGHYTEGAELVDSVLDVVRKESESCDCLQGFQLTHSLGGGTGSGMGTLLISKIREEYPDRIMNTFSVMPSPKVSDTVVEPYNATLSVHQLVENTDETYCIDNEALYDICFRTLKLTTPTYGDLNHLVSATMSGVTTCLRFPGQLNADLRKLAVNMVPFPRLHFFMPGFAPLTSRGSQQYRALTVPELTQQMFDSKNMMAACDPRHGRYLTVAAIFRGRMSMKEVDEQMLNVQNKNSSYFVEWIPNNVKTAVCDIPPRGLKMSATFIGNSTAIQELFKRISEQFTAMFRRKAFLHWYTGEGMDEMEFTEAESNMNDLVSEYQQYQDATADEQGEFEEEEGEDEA
Sequence (P81947 whole entry): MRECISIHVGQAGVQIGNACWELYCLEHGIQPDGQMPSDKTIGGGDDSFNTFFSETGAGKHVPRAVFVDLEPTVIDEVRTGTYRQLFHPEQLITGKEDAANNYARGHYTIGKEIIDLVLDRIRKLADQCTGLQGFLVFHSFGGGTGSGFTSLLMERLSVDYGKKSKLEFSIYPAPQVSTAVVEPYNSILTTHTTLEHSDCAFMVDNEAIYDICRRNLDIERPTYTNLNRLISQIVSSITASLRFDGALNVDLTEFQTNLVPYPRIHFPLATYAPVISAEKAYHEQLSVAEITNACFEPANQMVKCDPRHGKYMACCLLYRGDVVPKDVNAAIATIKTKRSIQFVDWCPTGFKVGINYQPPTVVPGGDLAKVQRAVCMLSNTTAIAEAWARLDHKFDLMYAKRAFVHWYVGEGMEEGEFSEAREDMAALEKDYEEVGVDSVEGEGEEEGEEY
ENDPOINT_LABEL: IC50 (µM)
Give bare numbers, in µM.

Here is how some compounds turned out for IC50.
[
  {
    "COMPOUND": "CCOC(=O)c1cc2c(n1Cc1cc(OC)c(OC)c(OC)c1)-c1oncc1CCC2 [Compound 67]",
    "IC50 / µM": 4.6
  },
  {
    "COMPOUND": "CCOC(=O)c1c(Cl)c2c(n1Cc1cc(OC)cc(OC)c1)-c1oncc1CCC2 [Compound 75]",
    "IC50 / µM": 1.9
  }
]

Record IC50 per entry; entries follow.
1. COc1ccc(OC)c(Cn2ccc3c2-c2oncc2CCC3)c1 [Compound 57]
2. CCOC(=O)c1cc2c(n1Cc1cc(OC)cc(OC)c1)-c1oncc1CC2 [Compound 3, reference compound]
3. CCOC(=O)c1cc2c(n1Cc1cccc(OC)c1)-c1oncc1CCC2 [Compound 63]
4. CCOC(=O)c1cc2c(n1Cc1cc(OC)cc(OC)c1)-c1oncc1CCC2 [Compound 66]
5. COc1cc(Cn2ccc3c2-c2oncc2CCC3)cc(OC)c1 [Compound 58]
6. COc1ccc(Cn2ccc3c2-c2oncc2CCC3)cc1 [Compound 56]

**Result**
1: 3.2; 2: 9.2; 3: 6.3; 4: 2.6; 5: 5.7; 6: 8.2

###

Field: activity at 1 µM. Provide a value for each of the compounds that follow.
test system: SU-DHL-10 (GCB DLBCL); experiment: MTT cell proliferation, lymphoma; format: cell-based; settings: Homo sapiens, SU-DHL10; 1 μM, 72 h, of untreated cells; read-out: Proliferating cells (%)

[
  {
    "COMPOUND": "CCOC(=O)c1cc2c(n1Cc1ccccc1)-c1oncc1CCC2",
    "SYSTEM_NAME": "SU-DHL-10 (GCB DLBCL)",
    "activity at 1 µM": "65.2%"
  },
  {
    "COMPOUND": "CCOC(=O)c1c(Cl)c2c(n1Cc1ccccc1OC)-c1oncc1CCC2",
    "SYSTEM_NAME": "SU-DHL-10 (GCB DLBCL)",
    "activity at 1 µM": "58.2%"
  },
  {
    "COMPOUND": "O=S(=O)(c1ccccc1)n1ccc2c1-c1oncc1CCC2",
    "SYSTEM_NAME": "SU-DHL-10 (GCB DLBCL)",
    "activity at 1 µM": "110%"
  },
  {
    "COMPOUND": "CCOC(=O)c1cc2c(n1Cc1cc(OC)cc(OC)c1)-c1oncc1CC2 [Compound 3, reference compound]",
    "SYSTEM_NAME": "SU-DHL-10 (GCB DLBCL)",
    "activity at 1 µM": "80%"
  }
]

With those in mind, consider the next compound.
**Query** Please report activity at 1 µM for the following compound: CCOC(=O)c1cc2c(n1Cc1ccc(OC)cc1)-c1oncc1CCC2
**Result** 66.3%

###

As a worked illustration, we turn to GI50 data collected for TK-10.
Give bare numbers, in µM.

// worked examples, GI50 included
[
  {
    "SMILES_REPR": "CCOC(=O)c1cc2c(n1Cc1ccccc1OC)-c1oncc1CCC2",
    "UNIT_TAG": "µM",
    "GI50": 67.8
  },
  {
    "SMILES_REPR": "CCOC(=O)c1cc2c(n1Cc1cc(OC)c(OC)c(OC)c1)-c1oncc1CCC2",
    "UNIT_TAG": "µM",
    "GI50": 64.9
  },
  {
    "SMILES_REPR": "CCOC(=O)c1cc2c(n1Cc1cccc(OC)c1)-c1oncc1CCC2",
    "UNIT_TAG": "µM",
    "GI50": 11.2
  }
]

Next up:
**Query** Look up and report GI50, with TK-10 as system, for CCOC(=O)c1c(Cl)c2c(n1Cc1cc(OC)cc(OC)c1)-c1oncc1CCC2
**Result** 10.3

###

system: HCC-2998
Field: GI50. Provide a value for each of the compounds that follow.
Numbers only, in nM.

[
  {
    "SMILES_REPR": "CCOC(=O)c1cc2c(n1Cc1cc(OC)cc(OC)c1)-c1oncc1CCC2",
    "SYSTEM_NAME": "HCC-2998",
    "GI50 (nM)": 230
  },
  {
    "SMILES_REPR": "CCOC(=O)c1cc2c(n1Cc1cc(OC)c(OC)c(OC)c1)-c1oncc1CCC2",
    "SYSTEM_NAME": "HCC-2998",
    "GI50 (nM)": 300
  }
]

Attention now turns to another entry.
**Query** Using known records, supply GI50 for CCOC(=O)c1cc2c(n1Cc1cccc(OC)c1)-c1oncc1CCC2
**Result** 4180

###

Below are GI50 values recorded for RPMI-8226.

See these solved cases before continuing.
[
  {
    "COMPOUND": "CCOC(=O)c1c(Cl)c2c(n1Cc1ccccc1)-c1oncc1CCC2 [Compound 70]",
    "GI50": "3270 nM"
  },
  {
    "COMPOUND": "CCOC(=O)c1cc2c(n1Cc1cc(OC)cc(OC)c1)-c1oncc1CCC2 [Compound 66]",
    "GI50": "50 nM"
  },
  {
    "COMPOUND": "CCOC(=O)c1cc2c(n1Cc1cccc(OC)c1)-c1oncc1CCC2 [Compound 63]",
    "GI50": "1890 nM"
  }
]

Kindly give each listed record's GI50.
1. CCOC(=O)c1cc2c(n1Cc1cc(OC)c(OC)c(OC)c1)-c1oncc1CCC2 [Compound 67]
2. CCOC(=O)c1c(Cl)c2c(n1Cc1cc(OC)cc(OC)c1)-c1oncc1CCC2 [Compound 75]

**Result**
["380 nM", "390 nM"]

**Query** Dear colleague, please send me the reported GI50 for CCOC(=O)c1cc2c(n1Cc1ccccc1OC)-c1oncc1CCC2 [Compound 62] when you can.
**Result** 4110 nM

###

Measurement record for SR; quantity recorded: GI50.
Answers are plain numbers, in nM.

[
  {
    "SMILES_REPR": "CCOC(=O)c1cc2c(n1Cc1cccc(OC)c1)-c1oncc1CCC2",
    "SYSTEM_NAME": "SR",
    "GI50 / nM": 280
  }
]

Provide GI50 for all items below, preserving their order.
1. CCOC(=O)c1cc2c(n1Cc1cc(OC)c(OC)c(OC)c1)-c1oncc1CCC2
2. CCOC(=O)c1c(Cl)c2c(n1Cc1cc(OC)cc(OC)c1)-c1oncc1CCC2
3. CCOC(=O)c1cc2c(n1Cc1cc(OC)cc(OC)c1)-c1oncc1CCC2
4. CCOC(=O)c1cc2c(n1Cc1ccccc1OC)-c1oncc1CCC2
5. CCOC(=O)c1c(Cl)c2c(n1Cc1ccccc1)-c1oncc1CCC2

**Result**
1. 40
2. 70
3. 30
4. 430
5. 1800

###

test system: MDA-MB-468
Consider the following compounds; for each one, report its GI50.
One number for each entry, in nM.

Quick one: give me GI50 for each item below, same order please.
1. CCOC(=O)c1cc2c(n1Cc1cc(OC)c(OC)c(OC)c1)-c1oncc1CCC2
2. CCOC(=O)c1cc2c(n1Cc1cc(OC)cc(OC)c1)-c1oncc1CCC2
3. CCOC(=O)c1c(Cl)c2c(n1Cc1cc(OC)cc(OC)c1)-c1oncc1CCC2
4. CCOC(=O)c1cc2c(n1Cc1ccccc1OC)-c1oncc1CCC2
5. CCOC(=O)c1cc2c(n1Cc1cccc(OC)c1)-c1oncc1CCC2

**Result**
[740, 30, 730, 2950, 340]

###

system: HL-60(TB)
Mark Satisfied only for GI50 values smaller than 300 nM; exact matches and larger values are Not satisfied.

Record excerpt, results attached:
[
  {
    "SMILES_REPR": "CCOC(=O)c1cc2c(n1Cc1ccccc1OC)-c1oncc1CCC2",
    "ANSWER_LABEL": "Not satisfied"
  },
  {
    "SMILES_REPR": "CCOC(=O)c1cc2c(n1Cc1cc(OC)c(OC)c(OC)c1)-c1oncc1CCC2",
    "ANSWER_LABEL": "Satisfied"
  },
  {
    "SMILES_REPR": "CCOC(=O)c1cc2c(n1Cc1cc(OC)cc(OC)c1)-c1oncc1CCC2",
    "ANSWER_LABEL": "Satisfied"
  },
  {
    "SMILES_REPR": "CCOC(=O)c1cc2c(n1Cc1cccc(OC)c1)-c1oncc1CCC2",
    "ANSWER_LABEL": "Not satisfied"
  },
  {
    "SMILES_REPR": "CCOC(=O)c1c(Cl)c2c(n1Cc1ccccc1)-c1oncc1CCC2",
    "ANSWER_LABEL": "Not satisfied"
  }
]

**Query** Strictly below 300 nM: is that where GI50 of CCOC(=O)c1c(Cl)c2c(n1Cc1cc(OC)cc(OC)c1)-c1oncc1CCC2 sits?
**Result** Not satisfied

Each recorded value in this set is attributed to paper PMC7901646.
